Hello, the source for this data is PubChem BioAssay AID743397, in case you need it.

- Tested on: Voltage-dependent L-type calcium channel subunit alpha-1D (CaV1.3) ICDI/IQ interaction
- experimental_protocol: Disruptors of the CACNA1D IQ motif to Ca2+-dependent inactivation inhibitor domain association, primary screening, Förster resonance energy transfer in intact living cells, one concentration (AID 743397);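 further: 0% = median of the neutral control wells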
- measurement_context: HEK cells, CFP/YFP FRET ICDI-IQ, plate reader, 10 min; at 12.3 µM; stronger effect = higher value; percent FRET-ratio fall versus neutral wells
Out of some 340,000 compounds screened, about 330 (0.097%) were called active. The list comes from a sample in which actives are over-represented; it also holds close analogues and randomly drawn compounds.
# inhibition annotations

[
  {
    "molecule": "CCOC(=O)c1oc2c(CN3CCN(C)CC3)c(O)ccc2c(=O)c1-c1ccc(Br)cc1",
    "measure_unit": "%",
    "inhibition": -4.95
  },
  {
    "molecule": "COc1cccc(CNC(=O)[C@H]2CCCN2C(=O)[C@H]2CCCN2C(=O)C2CCCCC2)c1",
    "measure_unit": "%",
    "inhibition": -4.37
  },
  {
    "molecule": "C=CCN=C1NC(c2ccccc2)C(C(=O)OC)=C(C)N1Cc1ccc(C(F)(F)F)cc1 (stereo unspecified)",
    "measure_unit": "%",
    "inhibition": -6.18
  },
  {
    "molecule": "Cc1cc(OC(=O)NCCc2ccc(F)cc2)ccc1F",
    "measure_unit": "%",
    "inhibition": -6.4
  },
  {
    "molecule": "CCCN(CCC)CCNC(=O)c1cc2c(C)nc3ccccc3c2o1",
    "measure_unit": "%",
    "inhibition": -3.91
  },
  {
    "molecule": "c1ccc2cc3c(NCCN4CCOCC4)ccnc3cc2c1",
    "measure_unit": "%",
    "inhibition": 147
  },
  {
    "molecule": "O=S1(=O)c2c(cccc2N2CCCCC2)O[C@H](COCc2ccccc2)CN1C1CC1",
    "measure_unit": "%",
    "inhibition": -6.9
  },
  {
    "molecule": "CC(=O)C1=C(C)N(Cc2ccc(Cl)cc2)C(=S)NC1c1ccc(F)cc1 (stereo unspecified)",
    "measure_unit": "%",
    "inhibition": -2.53
  },
  {
    "molecule": "COC(=O)[C@]12C[C@H](CC(=O)NCCCCc3ccccc3)C(=O)N(Cc3ccc4c(c3)OCO4)C1=C[C@H](C(C)(C)C)O[C@@H]2C",
    "measure_unit": "%",
    "inhibition": -10.1
  },
  {
    "molecule": "O=C(O)Cn1cnc2c(NCc3ccccc3)ncnc21",
    "measure_unit": "%",
    "inhibition": -6.21
  },
  {
    "molecule": "COc1cccc(CC(=O)N2CCN(C(=O)C(=O)c3cccc(C(F)(F)F)c3)CC2)c1",
    "measure_unit": "%",
    "inhibition": -9.3
  },
  {
    "molecule": "Oc1cccc2cc(-c3ccncc3)cnc12",
    "measure_unit": "%",
    "inhibition": -5
  },
  {
    "molecule": "Cc1nc2ccccc2c2oc(C(=O)NCCCN3CCC(C)CC3)cc12",
    "measure_unit": "%",
    "inhibition": 61.5
  },
  {
    "molecule": "CN1C(=O)C(Br)(Br)CC1c1cccnc1 (stereo unspecified)",
    "measure_unit": "%",
    "inhibition": -4.22
  },
  {
    "molecule": "COC(=O)N1Cc2ccnnc2CC1c1ccccc1Br (stereo unspecified)",
    "measure_unit": "%",
    "inhibition": -4.44
  },
  {
    "molecule": "C[C@@H](CN1C2=NC[C@@H](Cc3ccccc3)N2C[C@H]1Cc1ccc(O)cc1)NC(=O)CCC1CCCCC1",
    "measure_unit": "%",
    "inhibition": -5.25
  },
  {
    "molecule": "CN[C@H]1C[C@H]2c3[nH]c4c(-c5ccccc5)cccc4c3CCN2C(=O)[C@H]1[C@H](C)O",
    "measure_unit": "%",
    "inhibition": -3.8
  },
  {
    "molecule": "CC1CCN(CCCn2c(SCC(=O)NC3CCCC3)nc3ccccc3c2=O)CC1",
    "measure_unit": "%",
    "inhibition": -1.93
  },
  {
    "molecule": "Nc1[nH]c(C(=O)c2ccccc2)c(-c2ccc(Cl)cc2Cl)c1C(=O)c1ccccc1",
    "measure_unit": "%",
    "inhibition": -17.7
  },
  {
    "molecule": "CCCCCc1c(-c2ccc(OC)c(OC)c2)ncn1CCc1ccccc1OC",
    "measure_unit": "%",
    "inhibition": -11
  },
  {
    "molecule": "COc1ccc(-c2cc(NC=O)c3ncc(-c4cc(OC)c(OC)c(OC)c4)n3c2)c(OC)c1",
    "measure_unit": "%",
    "inhibition": -3.57
  }
]

###

# inhibition annotations
- Test system: Voltage-dependent L-type calcium channel subunit alpha-1D (CaV1.3) ICDI/IQ interaction
- experimental_protocol: Disruptors of the CACNA1D IQ motif to Ca2+-dependent inactivation inhibitor domain association, primary screening, Förster resonance energy transfer in intact living cells, one concentration (AID 743397);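 further: 0% = median of the neutral control wells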
- measurement_context: HEK cells, CFP/YFP FRET ICDI-IQ, plate reader, 10 min; at 12.3 µM; stronger effect = higher value; percent FRET-ratio fall versus neutral wells
In all, about 340,000 compounds went through this assay and about 330 (0.097%) were called active. For the sample, actives were picked, then their nearest neighbours and some compounds at random.
measured_endpoint: inhibition (%)

[
  {
    "compound": "COC(=O)C1=C(C)NC(=S)NC1c1ccc(OC)cc1 (centres undefined)",
    "observed_result": -4.39
  },
  {
    "compound": "Cc1[nH]nc2c1C(c1ccc(Br)cc1)NC2=O (centres undefined)",
    "observed_result": -4.02
  },
  {
    "compound": "COCc1cc(N2CCN(C(=O)OC(C)(C)C)C[C@@H]2C)ccc1N1CCN(Cc2ccccc2)[C@H](C)C1",
    "observed_result": -8.69
  },
  {
    "compound": "C[C@H]1CN([C@@H](C)CO)C(=O)CCCn2nncc2CO[C@@H]1CN(C)C(=O)Nc1ccc(N2CCN(C)CC2)cc1",
    "observed_result": -5.58
  },
  {
    "compound": "CC(C)CNc1cccc2c1S(=O)(=O)N[C@H](CC(C)C)CO2",
    "observed_result": -5.08
  },
  {
    "compound": "COc1ccc(C2=CN(Cc3ccccc3)C(c3ccc(OC)cc3)CC2=O)cc1 (centres undefined)",
    "observed_result": -3.32
  },
  {
    "compound": "CCOc1ccccc1C(=O)N1CCC[C@@H]1C(=O)N1CCC[C@H]1C(=O)NCc1ccccc1",
    "observed_result": -4.37
  },
  {
    "compound": "C=CC[C@]12C[C@@]3(O[C@H](c4ccc(C(F)(F)F)cc4)N=C3C[C@H](c3ccc(OC)cc3)[C@H]1C)N(C1CCN(Cc3ccccc3)CC1)C2=O",
    "observed_result": -3.62
  },
  {
    "compound": "COc1ccc(-c2ccc3c(n2)CCCN3S(=O)(=O)c2ccc(C)cc2)cc1",
    "observed_result": -4.73
  },
  {
    "compound": "COC(=O)C1=C(C)N(Cc2cccc(C(F)(F)F)c2)C(=NCc2ccccc2)NC1c1ccc(Cl)cc1 (centres undefined)",
    "observed_result": -3.3
  },
  {
    "compound": "COC(=O)[C@@]12C[C@@H](CC(=O)N3CCC(c4ccccc4)CC3)C(=O)N(Cc3ccccc3)C1=CCC(C)(C)C2",
    "observed_result": -9.64
  },
  {
    "compound": "N#Cc1c(N)sc2c1CCN(C(=O)OCc1ccccc1)C2",
    "observed_result": -7.05
  },
  {
    "compound": "CCCCC(=O)Nc1ccc(C(=O)Nc2cc(C(F)(F)F)ccc2Cl)cc1",
    "observed_result": -17.6
  },
  {
    "compound": "O=C(C(=O)N1CCC(CNC(=O)c2cccnc2Cl)CC1)c1cccs1",
    "observed_result": -10.2
  },
  {
    "compound": "CCN1CCN(CC(=O)Nc2sc3c(c2C#N)CCC3)CC1",
    "observed_result": -6.79
  },
  {
    "compound": "O=C(NN=Cc1ccco1)C(=O)Nc1ccc(Cl)c([N+](=O)[O-])c1",
    "observed_result": -13
  },
  {
    "compound": "O=C(Nc1ccc(C(F)(F)F)cc1)c1cccc(-n2cnnn2)c1",
    "observed_result": -5.18
  },
  {
    "compound": "COc1ccccc1-c1ccc([C@@H]2C[C@H]3[C@H](CON3C)CN2S(=O)(=O)c2cc(Cl)cc(Cl)c2)cc1",
    "observed_result": -4.02
  },
  {
    "compound": "CCOC(=O)c1cccc(NC(=O)C2CCCN(S(=O)(=O)c3cnc[nH]3)C2)c1 (centres undefined)",
    "observed_result": -9.58
  }
]
